# Assay text: Freeze–thaw stability of QC samples (−20 °C, three times)
# Format: physicochemical, rat
# Test settings: plasma QC, spiked 50 ng/mL, freeze (−20 °C) and thaw three times
Endpoint name: Freeze–thaw stability Mean (%)

>  <Compound>
O=Cc1ccc2n1C[C@@]1(C[C@H](O)[C@@H](CO)O1)OC2 [Analyte 4, 9-epi-acortatarin A]

>  <Unit spec>
%

>  <Freeze–thaw stability Mean>
91.90

$$$$
>  <Compound>
COc1ccccc1-c1cc(=O)c2c(O)cc(OC)c(OC)c2o1

>  <Unit spec>
%

>  <Freeze–thaw stability Mean>
105.76

$$$$
>  <Compound>
COc1cc(O[C@@H]2O[C@H](CO)[C@@H](O)[C@H](O)[C@H]2O)cc(OC)c1OC

>  <Unit spec>
%

>  <Freeze–thaw stability Mean>
112.34

$$$$
>  <Compound>
O=c1c(-c2ccc(O)cc2)coc2cc(O[C@@H]3O[C@H](CO)[C@@H](O)[C@H](O)[C@H]3O)cc(O)c12

>  <Unit spec>
%

>  <Freeze–thaw stability Mean>
84.84

$$$$
>  <Compound>
COc1ccc(-c2coc3cc(O[C@@H]4O[C@H](CO)[C@@H](O)[C@H](O)[C@H]4O)ccc3c2=O)cc1

>  <Unit spec>
%

>  <Freeze–thaw stability Mean>
118.81

$$$$
>  <Compound>
O=Cc1ccc2n1C[C@]1(C[C@H](O)[C@@H](CO)O1)OC2

>  <Unit spec>
%

>  <Freeze–thaw stability Mean>
84.84

$$$$
>  <Compound>
COC(=O)c1ccc(O)cn1 [Analyte 2, 5-hydroxypicolinic acid methyl ester]

>  <Unit spec>
%

>  <Freeze–thaw stability Mean>
98.92

$$$$
>  <Compound>
O=C(O)c1ccccc1O

>  <Unit spec>
%

>  <Freeze–thaw stability Mean>
80.11

$$$$
>  <Compound>
O=C1C[C@@H](c2ccc(O)cc2)Oc2cc(O)cc(O)c21

>  <Unit spec>
%

>  <Freeze–thaw stability Mean>
88.34

$$$$

----------
# Assay text: Pharmacokinetic study in rat plasma after oral administration of FKQJF extract (UFLC–MS/MS)
# Type: in vivo, Sprague-Dawley (SD) rats
# Test settings: Sprague-Dawley, oral FKQJF extract, single dose 3.2 g/kg, mean ± SD, read-out: MRT0→∞
Endpoint name: MRT inf (h)

Examples with their reported MRT inf follow.
>  <Mol smiles>
COc1ccc2cc3[n+](cc2c1OC)CCc1cc2c(cc1-3)OCO2

>  <MRT inf (h)>
39

$$$$
>  <Mol smiles>
O=c1c(-c2ccc(O)cc2)coc2cc(O[C@@H]3O[C@H](CO)[C@@H](O)[C@H](O)[C@H]3O)cc(O)c12

>  <MRT inf (h)>
14.2

$$$$

P = COc1ccccc1-c1cc(=O)c2c(O)cc(OC)c(OC)c2o1
Q = COc1ccc(-c2coc3cc(O[C@@H]4O[C@H](CO)[C@@H](O)[C@H](O)[C@H]4O)ccc3c2=O)cc1
For P and Q , which recorded MRT inf is lower? Your answer should be the label attached to the chosen record. Q

----------
# Assay text: Long-term stability of QC samples (−20 °C for 20 days)
# Assay type: physicochemical, rat
# Test settings: plasma QC, spiked 50 ng/mL
Endpoint name: Long-term stability Mean (%)

>  <Compound>
O=Cc1ccc2n1C[C@]1(C[C@H](O)[C@@H](CO)O1)OC2

>  <Endpoint name>
Long-term stability Mean

>  <Unit spec>
%

>  <Value measured>
81.68

$$$$
>  <Compound>
O=Cc1ccc2n1C[C@@]1(C[C@H](O)[C@@H](CO)O1)OC2 [Analyte 4, 9-epi-acortatarin A]

>  <Endpoint name>
Long-term stability Mean

>  <Unit spec>
%

>  <Value measured>
118.34

$$$$
>  <Compound>
COC(=O)c1ccc(O)cn1 [Analyte 2, 5-hydroxypicolinic acid methyl ester]

>  <Endpoint name>
Long-term stability Mean

>  <Unit spec>
%

>  <Value measured>
87.08

$$$$
>  <Compound>
O=c1c(-c2ccc(O)cc2)coc2cc(O[C@@H]3O[C@H](CO)[C@@H](O)[C@H](O)[C@H]3O)cc(O)c12

>  <Endpoint name>
Long-term stability Mean

>  <Unit spec>
%

>  <Value measured>
118.09

$$$$
>  <Compound>
COc1ccccc1-c1cc(=O)c2c(O)cc(OC)c(OC)c2o1

>  <Endpoint name>
Long-term stability Mean

>  <Unit spec>
%

>  <Value measured>
105.80

$$$$

----------
# Assay text: Pharmacokinetic study in rat plasma after oral administration of FKQJF extract (UFLC–MS/MS)
# Format: in vivo, Sprague-Dawley (SD) rats
# Test settings: Sprague-Dawley, oral FKQJF extract, single dose 3.2 g/kg, mean ± SD, read-out: MRT0→t
Endpoint name: MRT last (h)

1 = COc1ccccc1-c1cc(=O)c2c(O)cc(OC)c(OC)c2o1
2 = C=C1CC[C@@H]2[C@](C)(CO[C@@H]3O[C@H](CO)[C@@H](O)[C@H](O)[C@H]3O)CCC[C@@]2(C)[C@@H]1CCC1=CCOC1=O [Analyte 5, neoandrographolide]
Pick the one with the larger MRT last: 1 vs 2 Your answer should be the label attached to the chosen record. 1
(1: 8.68 h, 2: 3.51 h)

----------
# Assay text: Pharmacokinetic study in rat plasma after oral administration of FKQJF extract (UFLC–MS/MS)
# Type: in vivo, Sprague-Dawley (SD) rats
# Test settings: Sprague-Dawley, oral FKQJF extract, single dose 3.2 g/kg, mean ± SD
Endpoint name: AUC(0-inf) (ng·h/mL)

Examples with their reported AUC(0-inf) follow.
>  <Molecule>
CCC/C=C1\OC(=O)C2=C1CCC=C2 [Analyte 18, Z-ligustilide]

>  <Endpoint name>
AUC(0-inf)

>  <Value measured>
194

$$$$
>  <Molecule>
COc1cc2c(cc1O)CC[n+]1cc3c(OC)c(OC)ccc3cc1-2

>  <Endpoint name>
AUC(0-inf)

>  <Value measured>
2550

$$$$

1 = C=C1CC[C@@H]2[C@](C)(CO[C@@H]3O[C@H](CO)[C@@H](O)[C@H](O)[C@H]3O)CCC[C@@]2(C)[C@@H]1CCC1=CCOC1=O [Analyte 5, neoandrographolide]
2 = COc1cc2c(cc1OC)-c1cc3ccc(OC)c(OC)c3c[n+]1CC2
For 1 and 2 , which recorded AUC(0-inf) is lower? Your answer should be the label attached to the chosen record. 1

----------
# Assay text: Ordinary stability of QC samples (room temperature for 8 h)
# Format: physicochemical, rat
# Test settings: plasma QC, spiked 60 ng/mL, room temperature 8 h
Endpoint name: Ordinary stability Mean (%)

>  <Compound>
C=C1CC[C@@H]2[C@](C)(CO)[C@H](O)CC[C@@]2(C)[C@@H]1/C=C/C1=CCOC1=O [Analyte 15, 14-deoxy-11,12-didehydro-andrographolide]

>  <Ordinary stability Mean / %>
89.92

$$$$
>  <Compound>
COc1cc(/C=C/C(=O)O)ccc1O [Analyte 6, trans-ferulic acid]

>  <Ordinary stability Mean / %>
88.22

$$$$
>  <Compound>
C=C1CC[C@@H]2[C@](C)(CO)CCC[C@@]2(C)[C@@H]1CCC1=CCOC1=O

>  <Ordinary stability Mean / %>
81.80

$$$$
>  <Compound>
C=C1CC[C@@H]2[C@](C)(CO)[C@H](O)CC[C@@]2(C)[C@@H]1C/C=C1/C(=O)OC[C@H]1O [Analyte 12, andrographolide]

>  <Ordinary stability Mean / %>
115.56

$$$$
>  <Compound>
C=C1CC[C@@H]2[C@](C)(CO[C@@H]3O[C@H](CO)[C@@H](O)[C@H](O)[C@H]3O)CCC[C@@]2(C)[C@@H]1CCC1=CCOC1=O [Analyte 5, neoandrographolide]

>  <Ordinary stability Mean / %>
81.32

$$$$

----------
# Assay text: Pharmacokinetic study in rat plasma after oral administration of FKQJF extract (UFLC–MS/MS)
# Assay type: in vivo, Sprague-Dawley (SD) rats
# Test settings: Sprague-Dawley, oral FKQJF extract, single dose 3.2 g/kg, mean ± SD
Endpoint name: Cmax (ng/mL)

Examples with their reported Cmax follow.
>  <Molecule>
COc1ccc(-c2coc3cc(O[C@@H]4O[C@H](CO)[C@@H](O)[C@H](O)[C@H]4O)ccc3c2=O)cc1 [Analyte 10, ononin]

>  <Endpoint name>
Cmax

>  <Unit spec>
ng/mL

>  <Value measured>
192

$$$$
>  <Molecule>
COc1cc(O[C@@H]2O[C@H](CO)[C@@H](O)[C@H](O)[C@H]2O)cc(OC)c1OC [Analyte 1]

>  <Endpoint name>
Cmax

>  <Unit spec>
ng/mL

>  <Value measured>
48

$$$$
>  <Molecule>
COc1cc2c(cc1O)CC[n+]1cc3c(OC)c(OC)ccc3cc1-2 [Analyte 9, jatrorrhizine]

>  <Endpoint name>
Cmax

>  <Unit spec>
ng/mL

>  <Value measured>
270

$$$$
>  <Molecule>
C=C1CC[C@@H]2[C@](C)(CO)CCC[C@@]2(C)[C@@H]1CCC1=CCOC1=O [Analyte 17, andrograpanin]

>  <Endpoint name>
Cmax

>  <Unit spec>
ng/mL

>  <Value measured>
19.2

$$$$
>  <Molecule>
O=C(O)c1ccccc1O [Analyte 8, salicylic acid]

>  <Endpoint name>
Cmax

>  <Unit spec>
ng/mL

>  <Value measured>
433

$$$$

1 = CCC/C=C1\OC(=O)C2=C1CCC=C2 [Analyte 18, Z-ligustilide]
2 = C=C1CC[C@@H]2[C@](C)(CO[C@@H]3O[C@H](CO)[C@@H](O)[C@H](O)[C@H]3O)CCC[C@@]2(C)[C@@H]1CCC1=CCOC1=O [Analyte 5, neoandrographolide]
3 = O=Cc1ccc2n1C[C@@]1(C[C@H](O)[C@@H](CO)O1)OC2 [Analyte 4, 9-epi-acortatarin A]
4 = C=C1CC[C@@H]2[C@](C)(CO)[C@H](O)CC[C@@]2(C)[C@@H]1C/C=C1/C(=O)OC[C@H]1O [Analyte 12, andrographolide]
5 = COC(=O)c1ccc(O)cn1 [Analyte 2, 5-hydroxypicolinic acid methyl ester]
Reorder the items by Cmax, least to greatest. To answer, write out the labels according to the requested order. 1, 3, 2, 4, 5
